details: 343.15 K; 101.33 kPa; Liquid; Falling or rolling sphere viscometry
measured endpoint: viscosity (mPa·s)
Give the number; mPa·s is assumed, so skip it.

Reference set (3 entries):
| sample smiles | value reported |
| --- | --- |
| CCCCCCCCC | 0.425 |
| CCCCCCCC | 0.352 |
| CCCCCCC | 0.284 |

Turning now to a further molecule:
Which viscosity is reported for this molecule? CCCCCCCCCC
0.512

###

details: 308.15 K; 101.33 kPa; Liquid; Vibrating tube method
Recorded measurements of mass density, one per entry
Give the number; kg/m3 is assumed, so skip it.

Reference set (3 entries):
| compound | readout units | mass density |
| --- | --- | --- |
| CCCCCCCCCC [decane] | kg/m3 | 718.49 |
| CCCCCCCCC [nonane] | kg/m3 | 706.12 |
| CCCCCCCC [octane] | kg/m3 | 690.42 |

Turning now to a further compound:
Which mass density is reported for this compound? CCCCCCC [heptane]
671.2

###

settings: 318.15 K; 101.33 kPa; Liquid; Vibrating tube method
± gives the expanded uncertainty stated by the source.
measured endpoint: mass density

Reference set (3 entries):
| sample smiles | mass density |
| --- | --- |
| CCCCCCCC | 682.24 ± 1.4 kg/m3 |
| CCCCCCC | 662.55 ± 1.4 kg/m3 |
| CCCCCCCCC | 698.26 ± 1.4 kg/m3 |

Turning now to a further compound:
Which mass density is reported for this compound? CCCCCCCCCC
710.88 ± 1.4 kg/m3

###

conditions: 288.15 K; 101.33 kPa; Liquid; Falling or rolling sphere viscometry
Recorded measurements of viscosity, one per entry
Give the number; mPa·s is assumed, so skip it.

Reference set (3 entries):
| sample smiles | readout units | viscosity |
| --- | --- | --- |
| CCCCCCCCC | mPa·s | 0.763 |
| CCCCCCCC | mPa·s | 0.585 |
| CCCCCCCCCC | mPa·s | 0.987 |

Turning now to a further molecule:
Which viscosity is reported for this molecule? CCCCCCC
0.432

###

conditions: 328.15 K; 101.33 kPa; Liquid; Falling or rolling sphere viscometry
Recorded measurements of viscosity, one per entry
Give the number; mPa·s is assumed, so skip it.

| sample smiles | measured endpoint | value reported |
| --- | --- | --- |
| CCCCCCCCC | viscosity | 0.485 |
| CCCCCCC | viscosity | 0.312 |
| CCCCCCCCCC | viscosity | 0.593 |

Turning now to a further compound:
Which viscosity is reported for this compound? CCCCCCCC
0.395

###

conditions: 293.15 K; 101.33 kPa; Liquid; Vibrating tube method
Numbers after ± are expanded uncertainties.
measured endpoint: mass density
Quote the value and follow it with the unit of measurement.

| sample smiles | value reported |
| --- | --- |
| CCCCCCC | 683.93 ± 1.4 kg/m3 |
| CCCCCCCCC | 717.78 ± 1.4 kg/m3 |
| CCCCCCCCCC | 729.81 ± 1.5 kg/m3 |

Which mass density is reported for this molecule? CCCCCCCC
702.53 ± 1.4 kg/m3

###

settings: 333.15 K; 101.33 kPa; Liquid; Falling or rolling sphere viscometry
measured endpoint: viscosity (mPa·s)
Give the number; mPa·s is assumed, so skip it.

Reference set (3 entries):
| molecule | readout units | viscosity |
| --- | --- | --- |
| CCCCCCCCCC [decane] | mPa·s | 0.563 |
| CCCCCCCC [octane] | mPa·s | 0.379 |
| CCCCCCC [heptane] | mPa·s | 0.302 |

Turning now to a further molecule:
Which viscosity is reported for this molecule? CCCCCCCCC [nonane]
0.462
